Values compiled from ChEMBL document CHEMBL1128535.

Measured pIC50, listed per entry.
molecular target: Kappa-type opioid receptor (Cavia porcellus); assay: Binding affinity against Opioid receptor kappa 1 of Guinea pig brain homogenate using [3H]U-69593; format: tissue-based
Sequence (P41144 whole entry): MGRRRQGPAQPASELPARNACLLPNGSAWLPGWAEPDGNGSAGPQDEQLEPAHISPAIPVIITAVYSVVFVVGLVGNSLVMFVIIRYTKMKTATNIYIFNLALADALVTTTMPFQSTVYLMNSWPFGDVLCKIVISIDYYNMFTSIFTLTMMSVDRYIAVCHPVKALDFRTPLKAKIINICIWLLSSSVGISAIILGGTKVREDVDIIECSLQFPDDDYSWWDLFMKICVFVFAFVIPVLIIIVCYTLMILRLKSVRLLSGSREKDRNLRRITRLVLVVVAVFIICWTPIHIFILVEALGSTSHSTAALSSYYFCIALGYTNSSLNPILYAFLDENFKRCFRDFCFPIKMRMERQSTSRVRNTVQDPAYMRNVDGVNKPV
*1 amine or outer side, *2 acyl side, *3 side chain or, on linkers, in order; H or OH if unused. Where a SMILES comes first, the peptide text is derived from it. Side-chain parts run from the residue outwards. [ ]: non-standard residue; d: D form. N(2-aminoethyl)Phe = O=C([C@H](Cc1ccccc1)N(CCN[*:3])[*:1])[*:2]; X1 = CC(C)C[C@@H](C(=O)[*:2])N(C[C@H](Cc1ccccc1)N[*:3])[*:1]
Please note pIC50 is a logarithmic value: minus log10 of concentration in mol/L. Answer with that number alone.

Illustrative cases are given below, each with its answer.
CC[C@H](C)[C@H](NC(=O)[C@H](CCCN=C(N)N)NC(=O)[C@H](CCCN=C(N)N)NC(=O)[C@H](CC(C)C)NC[C@H](Cc1ccccc1)NC(=O)CNC(=O)CNC(=O)[C@@H](N)Cc1ccc(O)cc1)C(=O)N[C@@H](CCCN=C(N)N)C(=O)N1CCC[C@H]1C(=O)N[C@@H](CCCCN)C(N)=O (H-[X1]([Gly-Gly-Tyr])RRIRPK-NH2); 9.26
CC[C@H](C)[C@H](NC(=O)[C@H](CCCN=C(N)N)NC(=O)[C@H](CCCN=C(N)N)NC(=O)[C@H](CC(C)C)NC(=O)[C@H](Cc1ccccc1)NC(=O)CNC(=O)CNC[C@@H](N)Cc1ccc(O)cc1)C(=O)N[C@@H](CCCN=C(N)N)C(=O)N1CCC[C@H]1C(=O)N[C@@H](CCCCN)C(N)=O; 8.10

# next molecule below
Report pIC50 for CC[C@H](C)[C@H](NC(=O)[C@H](CCCN=C(N)N)NC(=O)[C@H](CCCN=C(N)N)NC(=O)[C@H](CC(C)C)NC(=O)[C@H](Cc1ccccc1)NCCNC(=O)CNC(=O)[C@@H](N)Cc1ccc(O)cc1)C(=O)N[C@@H](CCCN=C(N)N)C(=O)N1CCC[C@H]1C(=O)N[C@@H](CCCCN)C(N)=O (H-[N(2-aminoethyl)Phe]([Gly-Tyr])LRRIRPK-NH2) please.
7.77
